# SUBJECT_OF_TEST: CBP (Homo sapiens)
# Sequence (Q92793 whole entry): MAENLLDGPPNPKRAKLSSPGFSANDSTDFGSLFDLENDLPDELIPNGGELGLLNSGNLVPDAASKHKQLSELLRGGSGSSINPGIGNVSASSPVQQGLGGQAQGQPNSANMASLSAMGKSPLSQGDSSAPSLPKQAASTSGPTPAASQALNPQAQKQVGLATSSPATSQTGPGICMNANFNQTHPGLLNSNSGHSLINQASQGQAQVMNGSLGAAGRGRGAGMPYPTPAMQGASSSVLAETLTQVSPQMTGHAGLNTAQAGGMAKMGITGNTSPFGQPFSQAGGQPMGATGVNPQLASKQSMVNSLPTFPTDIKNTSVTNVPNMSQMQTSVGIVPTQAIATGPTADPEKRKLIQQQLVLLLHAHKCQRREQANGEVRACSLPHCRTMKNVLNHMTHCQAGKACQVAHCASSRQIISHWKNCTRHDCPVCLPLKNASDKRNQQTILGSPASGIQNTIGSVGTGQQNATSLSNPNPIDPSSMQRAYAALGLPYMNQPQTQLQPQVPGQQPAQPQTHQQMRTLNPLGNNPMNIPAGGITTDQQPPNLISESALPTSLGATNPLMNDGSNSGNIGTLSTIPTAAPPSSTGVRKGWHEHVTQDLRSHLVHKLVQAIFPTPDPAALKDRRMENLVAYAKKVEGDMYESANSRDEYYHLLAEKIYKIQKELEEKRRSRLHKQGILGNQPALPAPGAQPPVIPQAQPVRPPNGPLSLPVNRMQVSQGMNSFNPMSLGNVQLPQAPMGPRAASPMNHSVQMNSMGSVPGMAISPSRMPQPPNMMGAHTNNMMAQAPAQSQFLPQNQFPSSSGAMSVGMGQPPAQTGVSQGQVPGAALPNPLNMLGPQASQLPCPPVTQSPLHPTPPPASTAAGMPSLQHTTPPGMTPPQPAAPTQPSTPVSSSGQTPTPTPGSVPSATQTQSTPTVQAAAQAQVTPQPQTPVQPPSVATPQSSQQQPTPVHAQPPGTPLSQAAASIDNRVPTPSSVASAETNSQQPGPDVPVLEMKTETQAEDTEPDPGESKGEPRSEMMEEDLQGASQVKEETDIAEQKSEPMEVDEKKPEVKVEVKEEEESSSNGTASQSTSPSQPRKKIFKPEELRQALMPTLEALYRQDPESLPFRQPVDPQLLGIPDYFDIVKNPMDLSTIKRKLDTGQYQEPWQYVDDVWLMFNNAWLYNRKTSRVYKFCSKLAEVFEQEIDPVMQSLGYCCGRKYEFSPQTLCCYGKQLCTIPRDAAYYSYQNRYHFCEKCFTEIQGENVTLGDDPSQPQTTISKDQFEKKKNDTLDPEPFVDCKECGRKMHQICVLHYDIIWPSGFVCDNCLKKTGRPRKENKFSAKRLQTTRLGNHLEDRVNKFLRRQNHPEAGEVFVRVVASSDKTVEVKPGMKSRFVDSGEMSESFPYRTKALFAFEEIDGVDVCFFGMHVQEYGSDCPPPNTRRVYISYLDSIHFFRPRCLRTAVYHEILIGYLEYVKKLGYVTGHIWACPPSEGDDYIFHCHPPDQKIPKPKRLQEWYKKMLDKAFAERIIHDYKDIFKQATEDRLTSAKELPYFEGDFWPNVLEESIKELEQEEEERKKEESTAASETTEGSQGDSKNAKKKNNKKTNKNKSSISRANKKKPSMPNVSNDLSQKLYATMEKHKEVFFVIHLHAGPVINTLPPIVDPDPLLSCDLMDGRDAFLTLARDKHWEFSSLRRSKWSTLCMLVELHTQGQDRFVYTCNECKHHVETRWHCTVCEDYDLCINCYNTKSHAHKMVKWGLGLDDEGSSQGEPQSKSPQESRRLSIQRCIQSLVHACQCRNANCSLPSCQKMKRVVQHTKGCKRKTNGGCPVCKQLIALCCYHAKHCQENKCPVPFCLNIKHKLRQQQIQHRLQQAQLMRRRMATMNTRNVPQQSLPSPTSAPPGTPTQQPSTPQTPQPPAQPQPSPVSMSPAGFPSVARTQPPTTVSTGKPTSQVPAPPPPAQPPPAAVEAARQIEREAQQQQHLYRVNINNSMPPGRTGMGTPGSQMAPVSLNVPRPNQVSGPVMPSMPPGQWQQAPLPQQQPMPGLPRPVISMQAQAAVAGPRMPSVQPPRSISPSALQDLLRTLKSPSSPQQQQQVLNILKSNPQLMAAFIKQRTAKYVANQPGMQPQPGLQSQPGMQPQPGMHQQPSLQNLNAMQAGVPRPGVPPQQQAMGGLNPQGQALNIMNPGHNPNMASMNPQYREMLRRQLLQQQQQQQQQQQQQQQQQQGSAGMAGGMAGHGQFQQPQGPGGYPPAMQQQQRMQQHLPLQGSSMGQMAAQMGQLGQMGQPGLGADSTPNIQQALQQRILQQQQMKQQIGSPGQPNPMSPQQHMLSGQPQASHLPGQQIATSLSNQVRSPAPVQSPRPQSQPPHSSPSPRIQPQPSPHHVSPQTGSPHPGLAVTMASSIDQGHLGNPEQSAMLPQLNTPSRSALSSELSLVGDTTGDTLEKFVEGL
# ASSAY_OVERVIEW: binding to coactivator CBP (affinity chromatography; binding and isothermal calorimetry)
# STUDY_CONDITIONS: binding and isothermal calorimetry studies; read-out: binding affinity to the N-terminus of CBP
pKd: −log10 of the molar value.
MEASURE_NAME: pKd

Input: Entry O=C1[C@H](Cc2ccc(O)cc2)N2C(=O)CCN(C(=O)NCc3ccccc3)[C@H]2CN1Cc1cccc2ccccc12 : reported pKd = ?
Output: ~9.00
